measured.on: T1, PACAP-R3 (human, UniProt P41587 24-438)
T1 sequence (looked up): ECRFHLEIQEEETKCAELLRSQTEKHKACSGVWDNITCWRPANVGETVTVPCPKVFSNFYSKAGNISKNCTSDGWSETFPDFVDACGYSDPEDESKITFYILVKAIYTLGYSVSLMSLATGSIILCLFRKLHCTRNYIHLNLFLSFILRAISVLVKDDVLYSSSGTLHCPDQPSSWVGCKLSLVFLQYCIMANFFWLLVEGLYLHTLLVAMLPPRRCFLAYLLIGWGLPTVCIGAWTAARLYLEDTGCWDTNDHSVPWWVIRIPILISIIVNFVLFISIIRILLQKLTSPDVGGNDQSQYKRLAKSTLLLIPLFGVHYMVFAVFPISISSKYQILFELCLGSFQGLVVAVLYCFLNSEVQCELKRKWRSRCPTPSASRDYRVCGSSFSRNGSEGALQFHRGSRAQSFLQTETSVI
assay: cell-based or functional assay

binder	result.unit	relation.sign	R3 Selectivity
HSDAVFTDNYTRLRKQMAWKKYLNSIKNKR [R3P113]	ratio	=	10
HSDAVFTDNYTRLRKQMAAKKYLNSITNKR [R3P129]	ratio	=	50
HSDAVFTDNYTRLRKQLAAKKYLNDIKNGGT [R3P24]	ratio	=	34
HSDAVFTDNYTRLRKQMAAKKYLNSIKNKR [R3P65]	ratio	=	130
HSDAVFTDNYTRLRKQMAAKKYLNSIKNSR [R3P147]	ratio	=	500
HSDAVFTDNYTRLRKQMAVKKYLNSIKKKR [R3P57]	ratio	=	190
HSDAVFTDNYTRLRKQMAAKKYLNSIKNLR [R3P141]	ratio	=	100
HSDAVFTDNYTRLRKQLAAKKYLNDIKKGG [R3P31]	ratio	>	300
HSDAVFTDNYTRLRKQVAAKKYLNSIKKKR [R3P78]	ratio	=	230
HSDGIFTDSYSRYRKQLAAKKYLADVKK [R3P38]	ratio	=	7
HSDAVFTDNYTRLRKQVAAKKYLQSIKK [R3P60]	ratio	=	120
HSDAVFTDNYTRLRKQVAVKKYLQSIKKK [R3P81]	ratio	=	100
HSDAVFTDNYTRLRKQLAVKKYLNDIKKGGT [R3P21]	ratio	=	60
HSDAVFTDNYTRLRKQMAAKKYLNSIKNKF [R3P156]	ratio	=	100
